- System Tested: T1, USP7-CTD (535-1102) (human, UniProt Q93009 535-1102)
- T1 construct: USP7, human, residues 535-1102 (spacer helix and five Ubl domains); Cloned in p15TV-L; also called WT USP7-CTD; C-terminal domain; source: E. coli BL21(DE3)mgk, purified (nickel-NTA, SEC)
- T1 sequence (Q93009 535-1102): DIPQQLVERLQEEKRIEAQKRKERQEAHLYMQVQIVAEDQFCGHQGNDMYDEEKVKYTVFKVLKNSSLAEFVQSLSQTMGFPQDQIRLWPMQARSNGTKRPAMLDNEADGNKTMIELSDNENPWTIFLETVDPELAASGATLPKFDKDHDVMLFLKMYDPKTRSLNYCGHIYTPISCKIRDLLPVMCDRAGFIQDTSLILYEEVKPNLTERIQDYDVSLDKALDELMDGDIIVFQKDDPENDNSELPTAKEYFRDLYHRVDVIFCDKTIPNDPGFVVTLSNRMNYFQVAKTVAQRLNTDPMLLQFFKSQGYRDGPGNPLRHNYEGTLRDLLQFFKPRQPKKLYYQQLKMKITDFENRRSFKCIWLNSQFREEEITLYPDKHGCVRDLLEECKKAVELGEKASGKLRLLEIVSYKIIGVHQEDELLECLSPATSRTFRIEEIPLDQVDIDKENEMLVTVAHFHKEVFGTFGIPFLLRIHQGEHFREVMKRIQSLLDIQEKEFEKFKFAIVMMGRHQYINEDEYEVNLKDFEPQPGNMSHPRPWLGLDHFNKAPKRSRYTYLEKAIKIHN
- Assay Protocol: fluorescence polarisation; USP7 proteins titrated (0 to 200 μM) into 40 nM N-terminally FITC-labeled peptide; 0.01% Triton X-100, 150 mM NaCl, 20 mM Tris pH 7.5
- Condition Notes: both partners purified
Primed or numbered codes have the meaning given here. No end group written: not given here. FITC′ = fluorescein isothiocyanate label
Property Name: Kd (µM)
Number in µM, nothing else.

Sample {FITC′}-TGKGKWKR [FITC-UHRF1 peptide] — what was its Kd? 5.6

Sample {FITC′}-DRTPRKRISKTLN (GMP synthase (GMPS), residues 316-328 ('this GMPS peptide'); also called N-terminal FITC containing GMPS peptide; source: synthetic peptide (CanPeptide)) [FITC-GMPS peptide] — what was its Kd? 32

// data source = paper PMC4457826
